Experimental Target: B2 bradykinin receptor (Rattus norvegicus)
Sequence (P25023 whole entry): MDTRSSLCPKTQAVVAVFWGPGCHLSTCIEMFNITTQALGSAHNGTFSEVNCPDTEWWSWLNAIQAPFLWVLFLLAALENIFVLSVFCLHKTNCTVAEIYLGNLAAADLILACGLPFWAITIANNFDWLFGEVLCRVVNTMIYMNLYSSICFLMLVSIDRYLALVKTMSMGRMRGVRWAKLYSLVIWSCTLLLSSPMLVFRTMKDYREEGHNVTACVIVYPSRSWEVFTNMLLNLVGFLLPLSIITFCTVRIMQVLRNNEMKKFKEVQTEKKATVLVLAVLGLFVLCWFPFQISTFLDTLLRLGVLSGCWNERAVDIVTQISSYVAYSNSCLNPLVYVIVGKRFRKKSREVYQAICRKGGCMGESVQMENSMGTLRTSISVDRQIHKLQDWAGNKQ
Method: Binding affinity against rat Bradykinin receptor B2 expressed in CHO cells using [3H]-bradykinin as radioligand
Format: cell-based
Quantity: pKi
On this scale, pKi is minus log10 of a concentration expressed in M (mol/L).

Prompt line: Quote B2 bradykinin receptor (Rattus norvegicus) pKi for entry H-RPPGFSPFR-OH [BRADYKININ] .
Response line: 9.34
